read-out: growth arrest and DNA damage 45 (GADD45A), GADD45A (gene 1647); assay: LTEA_HepaRG_GADD45A: Life Technologies and Expression Analysis (LTEA) Assay for growth arrest and DNA damage 45 (GADD45A) using HepaRG (AID 2283458); settings: mRNA level, 48 h; actives raise or lower the signal
Calls of active or inactive are those of the source. Rule for the calls: active = hit-call score of the fitted dose curve at least 0.9, where 1 is the maximum; inactive = score below 0.9.

[
  {
    "ENTRY_SMILES": "CCN(CC)C(=O)c1cc(S(=O)(=O)Cc2ccccc2)c(N2CCC(c3ccccc3)CC2)cc1N(CC)CCN(C)C",
    "outcome": "inactive"
  },
  {
    "ENTRY_SMILES": "CO[C@H]1/C=C/O[C@@]2(C)Oc3c(C)c(O)c4c(O)c(c(/C=N/N5CCN(C)CC5)c(O)c4c3C2=O)NC(=O)/C(C)=C\\C=C\\[C@H](C)[C@H](O)[C@@H](C)[C@@H](O)[C@@H](C)[C@H](OC(C)=O)[C@@H]1C",
    "outcome": "inactive"
  },
  {
    "ENTRY_SMILES": "CC[C@@H]1C[C@H](N(Cc2cc(C(F)(F)F)cc(C(F)(F)F)c2)C(C)=O)c2cc(C(F)(F)F)ccc2N1C(=O)OC(C)C",
    "outcome": "inactive"
  }
]

---

read-out: Interleukin 6 Receptor (IL6R), IL6R (gene 3570); assay: LTEA_HepaRG_IL6R: Life Technologies and Expression Analysis (LTEA) Assay for Interleukin 6 Receptor (IL6R) using HepaRG (AID 2283510); details: mRNA level, 48 h; actives raise or lower the signal
Active and inactive are the calls of the source. Rule for the calls: active = hit-call score of the fitted dose curve at least 0.9, where 1 is the maximum; inactive = score below 0.9.
Output constraint: value belongs to active, inactive

[
  {
    "COMPOUND": "CCCOC(=O)c1cc(O)c(O)c(O)c1",
    "GROUP_LABEL": "inactive"
  },
  {
    "COMPOUND": "OCCO",
    "GROUP_LABEL": "inactive"
  },
  {
    "COMPOUND": "CCCCCCCC[Si](OCC)(OCC)OCC",
    "GROUP_LABEL": "inactive"
  },
  {
    "COMPOUND": "c1ccc2n[nH]nc2c1",
    "GROUP_LABEL": "inactive"
  },
  {
    "COMPOUND": "CC[C@@H]1C[C@H](N(Cc2cc(C(F)(F)F)cc(C(F)(F)F)c2)C(C)=O)c2cc(C(F)(F)F)ccc2N1C(=O)OC(C)C",
    "GROUP_LABEL": "inactive"
  },
  {
    "COMPOUND": "CC(=O)N1CCN(c2ccc(OC[C@H]3CO[C@](Cn4ccnc4)(c4ccc(Cl)cc4Cl)O3)cc2)CC1",
    "GROUP_LABEL": "active"
  },
  {
    "COMPOUND": "O=C(O)c1ccccc1C(=O)OCc1ccccc1",
    "GROUP_LABEL": "inactive"
  },
  {
    "COMPOUND": "CCCCOC(=O)c1ccc(O)cc1",
    "GROUP_LABEL": "inactive"
  },
  {
    "COMPOUND": "Cc1ncc(CO)c(CO)c1O",
    "GROUP_LABEL": "inactive"
  },
  {
    "COMPOUND": "O=C(OCCCCCCOC(=O)c1ccccc1)c1ccccc1",
    "GROUP_LABEL": "inactive"
  }
]

-- ask // outcome(item) with item = c1ccc(C[n+]2cccc3ccccc32)cc1
-- reply active

-- ask // outcome(item) with item = Oc1ccc2ccccc2c1
-- reply inactive

-- ask // outcome(item) with item = O=C(O)Cn1c(=O)n(Cc2ccc(Br)cc2F)c(=O)c2ccc(Cl)cc21
-- reply inactive

-- ask // outcome(item) with item = CCCCCCCCCCCO
-- reply inactive

-- ask // outcome(item) with item = CCCCCc1ccc(N)cc1
-- reply inactive

-- ask // outcome(item) with item = c1ccc2ccccc2c1
-- reply inactive

-- ask // outcome(item) with item = CN(C[C@@H](CC[N+]12CCC(C3CCCCC3)(CC1)CC2)c1ccc(Cl)c(Cl)c1)C(=O)c1cc(C(F)(F)F)cc(C(F)(F)F)c1
-- reply active

From: PubChem BioAssay (EPA / NIEHS)
